system-under-test: human TRPV4 (Homo sapiens (Human))
assay-notes: Test Example 3: measurement of TRPV4 inhibitory activity (Fluo-3, FDSS 3000, 4α-PDD)
Format: cell-based
condition-notes: hTRPV4/CHO cells, calculated from IC50 and 4α-PDD EC50
Experimental: For each compound, TRPV4 inhibitory activity was measured using cells. (1) The TRPV4 inhibitory activity was measured using CHO-K1 cells stably expressing human TRPV4 (hTRPV4/CHO cells). […] (7) Diluted compound solution was dispensed to each well in the compound plate, and mixed with built-in Pipette and Mixer of the fluorescence analysis system FDSS 3000 (Hamamatsu Photonics). […] TRPV4 inhibitory activity (Ki value) of a compound was evaluated according to the following procedure. […]
measurement-type: pKi
Please keep in mind that pKi is minus log10 of the molar concentration; only the number is needed.

Look at this compound and give its reported pKi. Cc1c(NC(=O)Nc2cccc(C(F)(F)F)c2)cc(-c2ccccc2)n1CCCN1CCOCC1
5.79

Look at this compound and give its reported pKi. Cc1c(C(=O)Nc2cccc(C(F)(F)F)c2)cc(-c2ccccc2)n1CCCN(C)CCOCc1ccccc1
5.58

Look at this compound and give its reported pKi. Cc1c(C(=O)Nc2cccc(C(F)(F)F)c2)cc(-c2ccccc2)n1CCCN(C)C
6.77

Look at this compound and give its reported pKi. COC(=O)NCCCn1c(-c2ccccc2)cc(C(=O)Nc2cccc(C(F)(F)F)c2)c1C
6.03

Look at this compound and give its reported pKi. Cc1c(C(=O)Nc2cccc(C(F)(F)F)c2)cc(-c2ccccc2)n1CCCN(C)C(=O)c1ccc2ccccc2n1
6.01

Look at this compound and give its reported pKi. Cc1c(C(=O)Nc2cccc(C(F)(F)F)c2)cc(-c2ccccc2)n1CCCN(C)CC1CCOCC1
5.94

Look at this compound and give its reported pKi. CC(=O)N(C)CCCn1c(-c2ccccc2)cc(C(=O)Nc2cccc(C(F)(F)F)c2)c1C
5.77

Look at this compound and give its reported pKi. Cc1c(C(=O)Nc2cccc(C(F)(F)F)c2)cc(-c2ccccc2)n1CCCN(C)C(=O)C1CCOCC1
5.99

Look at this compound and give its reported pKi. Cc1c(C(=O)Nc2cccc(C(F)(F)F)c2)cc(-c2ccccc2)n1CCCN(C)C(=O)c1ccno1
6.60

Look at this compound and give its reported pKi. Cc1c(C(=O)Nc2cccc(C(F)(F)F)c2)cc(-c2ccccc2)n1CCCN1CCCCC1
6.49

Look at this compound and give its reported pKi. Cc1c(C(=O)Nc2ccccc2)cc(-c2ccccc2)n1CCCN1CCOCC1
6.17

Look at this compound and give its reported pKi. Cc1c(C(=O)Nc2cccc(C(F)(F)F)c2)cc(-c2ccccc2)n1CCCN(C)C(=O)c1ccco1
5.86

Look at this compound and give its reported pKi. COc1ccc(OC)c(CC(=O)N(C)CCCn2c(-c3ccccc3)cc(C(=O)Nc3cccc(C(F)(F)F)c3)c2C)c1
6.07

Look at this compound and give its reported pKi. Cc1c(C(=O)Nc2cccc(C(F)(F)F)c2)cc(-c2ccccc2)n1CCCN(C)C(=O)c1ccccn1
5.93

Look at this compound and give its reported pKi. Cc1c(C(=O)Nc2cnccn2)cc(-c2ccccc2)n1CCCN1CCOCC1
5.51

----------
system-under-test: human TRPV4 (Homo sapiens (Human), UniProt Q9HBA0)
Sequence (Q9HBA0 whole entry): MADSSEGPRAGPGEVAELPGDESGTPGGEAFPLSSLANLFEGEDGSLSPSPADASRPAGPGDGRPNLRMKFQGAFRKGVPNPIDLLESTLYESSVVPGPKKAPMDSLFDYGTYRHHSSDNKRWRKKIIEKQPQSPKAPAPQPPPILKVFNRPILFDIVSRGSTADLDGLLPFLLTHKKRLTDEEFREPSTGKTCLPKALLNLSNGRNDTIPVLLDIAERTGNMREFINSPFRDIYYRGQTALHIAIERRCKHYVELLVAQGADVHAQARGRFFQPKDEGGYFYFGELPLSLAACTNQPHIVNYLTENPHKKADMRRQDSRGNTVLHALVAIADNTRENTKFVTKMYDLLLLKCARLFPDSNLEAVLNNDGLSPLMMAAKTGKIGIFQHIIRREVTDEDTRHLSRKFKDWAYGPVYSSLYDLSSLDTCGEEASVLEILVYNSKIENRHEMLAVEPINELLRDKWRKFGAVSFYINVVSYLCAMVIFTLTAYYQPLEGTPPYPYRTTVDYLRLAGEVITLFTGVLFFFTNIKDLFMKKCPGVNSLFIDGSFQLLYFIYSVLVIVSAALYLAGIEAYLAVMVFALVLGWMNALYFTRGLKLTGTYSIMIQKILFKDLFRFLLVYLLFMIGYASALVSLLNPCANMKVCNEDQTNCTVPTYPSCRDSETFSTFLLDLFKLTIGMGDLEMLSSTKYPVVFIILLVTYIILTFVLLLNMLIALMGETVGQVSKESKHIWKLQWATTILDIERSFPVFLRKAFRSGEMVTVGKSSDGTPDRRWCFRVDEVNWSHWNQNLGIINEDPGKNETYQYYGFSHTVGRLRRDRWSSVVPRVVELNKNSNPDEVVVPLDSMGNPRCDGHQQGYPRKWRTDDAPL
assay-notes: Test Example 3: measurement of TRPV4 inhibitory activity (Fluo-3, FDSS 3000, 4α-PDD)
Assay type: cell-based
condition-notes: hTRPV4/CHO cells, calculated from IC50 and 4α-PDD EC50
measurement-type: Ki (µM)
Hi! Could you send only the number? It should be in µM, unit omitted.

Look at this molecule and give its reported Ki. Cc1c(C(=O)Nc2cccc(C(F)(F)F)c2)cc(-c2ccccc2)n1CCCN(C)C(=O)C1CC1
0.707

Look at this molecule and give its reported Ki. Cc1c(C(=O)Nc2cccc(C(F)(F)F)c2)cc(-c2ccccc2)n1CCCN(C)CC(C)C
1.61

Look at this molecule and give its reported Ki. Cc1c(C(=O)Nc2cccc(C(F)(F)F)c2)cc(-c2ccccc2)n1CCCN(C)C(=O)c1ccc(N(C)C)cc1
1.35

Look at this molecule and give its reported Ki. CC(=O)N1CCC(C(=O)N(C)CCCn2c(-c3ccccc3)cc(C(=O)Nc3cccc(C(F)(F)F)c3)c2C)CC1
1.79

Look at this molecule and give its reported Ki. Cc1c(C(=O)Nc2ccc(C(F)(F)F)cc2)cc(-c2ccccc2)n1CCCN1CCOCC1
0.755

Look at this molecule and give its reported Ki. Cc1c(C(=O)Nc2cccc(C(F)(F)F)c2)cc(-c2ccccc2)n1CCCN(C)CC(C)(C)CN(C)C
0.352

Look at this molecule and give its reported Ki. Cc1c(C(=O)Nc2cccc(C(F)(F)F)c2)cc(-c2ccccc2)n1CCCN(C)CC1CCOC1 (stereo not shown)
1
